assayNotes: Quantitative High-Throughput Screen for Regulators of Epigenetic Control; also: nearly all actives have a fitted effect of over 60% in size
measurementParameters: murine LDR cells, GFP reporter derepression, 30 h; series mostly up to 53.9 µM
In all, about 280,000 compounds went through this assay and about 540 (0.19%) were called active. Roughly 2% stayed inconclusive and do not appear here. Only a selection was taken, and actives are over-represented in it overall.
valueType: outcome

Consider the reported outcome for these molecules:
smilesRepr | outcome
Cc1ccccc1C(=O)Nc1sc2c(c1C(=O)N1CCC(C)CC1)CCCC2 | inactive
CCS(=O)(=O)c1ncc(N(Cc2ccc(F)cc2)Cc2ccco2)c(C(=O)Nc2cc(C)ccc2C)n1 | inactive
Cn1cc(/C=C/c2nc3ccccc3c(=O)n2-c2cccc([N+](=O)[O-])c2)c2ccccc21 | inactive
CCCN(CCC)C(=O)Cn1c(=O)n(-c2ccc(Cl)cc2)c(=O)c2c3c(sc21)CCCCC3 | inactive
COc1ccc(-c2cccc(NS(=O)(=O)c3cc(C)c(OC)c(C)c3C)c2)nn1 | inactive

Lookup result for `Cc1ccc(C)c(N2CCN(C(=O)Cn3nc(C)c4sc5ccccc5c4c3=O)CC2)c1` ; measured outcome: inactive
